Cited source: patent US20120149104A1

binders and their reported koff
# Target System: SNAP-25 peptide comprising amino acids 134-197 of SEQ ID NO: 5 (human)
# Assay Remarks: SPR (BIAcore 3000), peptide on CM5 chip, antibody in flow
# number only, unit s⁻¹ dropped from output

{"columns": ["Binder", "Measurement Type", "Unit Of Measure", "Result"],
 "data": [
  ["α-SNAP-25 monoclonal antibody 2E2A6 (antibody, V domains shown) VH: QVQLQQSDAELVKPGASVKISCRASGYTFTDHSIHWVKQQPGQGLEWIGYIFPGNGNIEYNDKFKGKATLTADKSSGTAYMQLNSLTSEDSAVYFCKRMGYWGQGTSVTVSS VL: DVLMTQTPLTLSVTIGQPASISCKSSQSLLYTNGKTYLTWLFQRPGQSPKRLIYLVSELDSGVPDRFSGSGSGTDFTLEITRVEAEDLGVYYCLQSAHFPFTFGSGTKLEIKR", "koff", "s⁻¹", 0.000153],
  ["α-SNAP-25 monoclonal antibody 3C1A5 (antibody, V domains shown) VH: QVKLQESGAELVKPGASVKISCKASGYTFTDHSIHWVKQKPGQGLEWIGYLFPGNGNFEYNEKFKGKATLTADKSSSTVYMYLNSLTSEDSAVYFCKRMGYWGQGTTVTVSS VL: DVVMTQTPLTLSVTIGQPASISCKSSQSLLNTNGKTYLTWLIQRPGQSPQRLIYLVSKLDSGVPDRFSGSGSGTDFTLKISRVEAEDLGVYYCLQSSHFPFTFGSGTKLEIKR", "koff", "s⁻¹", 0.000288]
]}

Asked: Using the record for α-SNAP-25 monoclonal antibody 2C9B10 (antibody, V domains shown) VH: QVKLQESGAELVKPGASVKISCKASGYTFTDHSIHWVKQKPGQGLEWIGYLFPGNGNFEYNEKFKGKATLTADKSSSTAYMHLNSLTSEDSAVYFCKKMDYWGQGTTVTVSS VL: DIQMTQSPASLSASVGETVTITCRTTENIYSYFVWSQQRQGKSPQLRVYNAKSLAEGVPSSFNVSVSGTQFSLKINSLQPEDFGTYHCQHHYGTPYTFGGGTRLEIRR , report its koff.
Given back: 0.000311

Asked: What does the data say about its koff? Entry: α-SNAP-25 monoclonal antibody 1D3B8 (antibody, V domains shown) VH: QVKLQESGAELVKPGASVKISCKASGYIFTDHALHWVRQKPEQGLEWIGYIFPGNGNIEYNEKFKGKATLTADKSSSTAYMQLNSLTSGDSAMYFCKKMDYWGQGTTVTVSS VL: DVLMTQTPLSLPVSLGDQASISCRSSQSIVHSNGNTYLEWYLQKPGQSPKLLIYKVSNRFSGVPDRFSGSGSGTDFTLKISRVEAEDLGVYYCFQGSHVPPTFGAGTKLELKR
Given back: 5.78e-05
